# Test system: A549 lung cancer cells
# Method Description: MTT cell viability assay
# Assay type: cell-based, human
# Condition Details: read-out: IC50 cell viability (MTT); A549, 24 h
Readout: IC50 (µM)
Numbers only; they are read as µM.

Name the recorded IC50 of the item O=C1C(Cl)=C(Nc2ccc(S(=O)(=O)Nc3ccccn3)cc2)C(=O)c2ccccc21 in your answer.
41

* * *

# Tested on: primary multiple myeloma cells from patients' bone marrow
# Method Description: Proliferation of primary MM cells
# Assay type: cell-based, human
# Condition Details: read-out: IC50 Proliferation; patient 2, 24 h
Readout: IC50

Name the recorded IC50 of the item CC(C)C[C@H](NC(=O)[C@H](Cc1ccccc1)NC(=O)c1cnccn1)B(O)O in your answer.
> 10000 nM

Name the recorded IC50 of the item O=C1C(Cl)=C(Nc2ccc(S(=O)(=O)Nc3ccccn3)cc2)C(=O)c2ccccc21 in your answer.
2900 nM
